# experiment-description: yeast display, Sf9 membrane polyspecificity reagent, FACS + sequencing; frameworks hold sequencing errors
measured-property: polyreactivity (PSR sort gate)

Some solved cases for reference:
Record request: polyreactivity (PSR sort gate) value, item QVQLVETGGGLVQAGGSLRLSCAASGSTFTSNAMGWYRPAPGKERELVAAIDSSDGITYYADSVKGRFTISRDNAKNTVYLQMNSLKPEDTAVYYCAAEDYEAGYDYWGQGTQVTVSS high polyreactivity

Record request: polyreactivity (PSR sort gate) value, item QVQLVESGGGLVQAGGSLRLSCAASGSIFDYYAMGWYRQAPGKERELVAAISGTGGSTYYADSVKGRFTISRDNAKNTVYLQMNSLKPEDTAVYYCNAGRHILTALRNDGTFDYWGQGTQVTVSS high polyreactivity

Record request: polyreactivity (PSR sort gate) value, item QVQLVESGGGLVQAGGSLRLSCAASGFTFYSYAMGWYRQAPGKERELVAAISRSGGSTRYADSVKGRFTISRDNAKNTVYLQMNSLKPEDTAVYYCNAGKYRAYDYWGQGTQVTVSS high polyreactivity

Record request: polyreactivity (PSR sort gate) value, item QFQLLESGGGLVQAGGSLRLSCAASGRTFSYNAMGWYRKAPGIERELVAAITGGTASTYYADSVKGRFTISRDNAKNPVYFQMNSLKPEETAVYYCNRASVFHYPWYYYWGQGTQVTVSS high polyreactivity

Record request: polyreactivity (PSR sort gate) value, item QVQLVESGGGLVQAGGSLRLSCAASGFTFDTYDMGWYRQAPGKERELVAAIDWSGVSTYYADSVKGRFTISRDNAKNTVYLQMNSLKPEDTAVYYCAADLWQYDIASWDYTYDYWGQGTQVTVSS low polyreactivity

***
Record request: polyreactivity (PSR sort gate) value, item QVQLVESGGGLVQAGGSLRLSFAPSGRIVPNAMGWYRQAPGKDREMVAAISRSGGSTYYADSVKGRFTISRDNAKNTVYLQMNSLKPEDTAVYYCAKRSTSQSLQGEYWGQGTQVTVSS high polyreactivity

Record request: polyreactivity (PSR sort gate) value, item QVQLVESGGGLVQAGGSLRLSCAASGFTFGSYAMGWYRQAPGKEREFVAAITRSGGRTYYADSVKGRFTISRDNAKNTVYLQMNSLKPEDTAVSYCNAYRSALYTPEYDYWGQGTQVNVSS high polyreactivity

Record request: polyreactivity (PSR sort gate) value, item QVQLVESGGGLVQAGGSLRLSCAASGFTFLAYAMGWYRQAPGQERELVAAINSSDGTTHYADSVKGRFTISRDTAKNTVYLQMNSLKPEDTAVYYCAVSQVRTGEGYHYWGQGTQVTVSS low polyreactivity

Record request: polyreactivity (PSR sort gate) value, item QVQLVESGGGLVQAGGSLRLSCAASGRIFNYNALGWYRQAPGKESELVATITYIGTGTYYADSVKGRFTISRDNAKTTVYLQMNSLKPEDTAVYYCAASYRSRVWWRFDYWGQGTQVTVSS high polyreactivity
